Here, each record is paired with measured Maximum Signal (Δpm) data.
Assayed system: F-actin-Tm composite thin filament (rabbit, UniProt P68135 1-377; P58772 1-284)
Assay details: SPR

In the examples that follow, each entry is paired with its recorded Maximum Signal (Δpm).
SKTRGKAKVTGRWK (peptide, UniProt P45379-6 275-288, looked up) = 434 Δpm
SKTCGKAKVTGRWK (peptide, UniProt P45379-6 275-288, looked up) [Human cTnT-C14 peptide containing HCM-linked mutation R278C] = 134 Δpm
SKTRGNAKVTGRWK (peptide, UniProt P45379-6 275-288, looked up) [Human cTnT-C14 peptide containing HCM-linked mutation K280N] = 109 Δpm

Reported Maximum Signal (Δpm), binder SKTRGKAKVTGCWK (peptide, UniProt P45379-6 275-288, looked up) [Human cTnT-C14 peptide containing HCM-linked mutation R286C] : ____ 126 Δpm
